# Assay remarks: chemical genetic growth profiling, strain panel (AID 1159580);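 also: tested at 20 µM; growth read once vehicle control cultures reached saturation at 30 °C; 1 = growth at the plate median or of vehicle wells; lower values mean less growth of the strain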
# Condition set: S. cerevisiae deletion strains, growth OD, locus YPL031C, strain PHO85
Hit rate of the full screen: of about 5,500 compounds, about 2,000 (36%) were called active. About 18% were inconclusive and are not listed. Rule as the data show it: active = normalized growth mostly below about 0.91 (no sharp cut-off); inconclusive = no clear call, values can overlap the other calls; inactive = mostly above about 0.92. Some of the results follow.
Labels: 1 for active, -1 for inactive

[
  {
    "Given smiles": "CSc1ccc(/C=C(\\C)[N+](=O)[O-])cc1",
    "Assigned category": 1
  },
  {
    "Given smiles": "CCOc1ccc(/C=C(\\C)[N+](=O)[O-])cc1OC",
    "Assigned category": 1
  },
  {
    "Given smiles": "Cc1c2c(=O)[nH]ncc2c(-c2ccccc2)n1-c1ccc([N+](=O)[O-])cc1",
    "Assigned category": -1
  },
  {
    "Given smiles": "O=C(NCc1ccncc1)c1ccc(-n2cccn2)cc1",
    "Assigned category": -1
  },
  {
    "Given smiles": "FC(F)(F)c1cccc(NC(=S)Nc2csc(C(F)(F)F)c2-c2ccccc2)c1",
    "Assigned category": -1
  },
  {
    "Given smiles": "O=[N+]([O-])/C=C/c1ccc(F)cc1",
    "Assigned category": 1
  }
]

###

# Assay remarks: chemical genetic growth profiling, strain panel (AID 1159580);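 also: tested at 20 µM; growth read once vehicle control cultures reached saturation at 30 °C; 1 = growth at the plate median or of vehicle wells; lower values mean less growth of the strain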
# Condition set: S. cerevisiae deletion strains, growth OD, locus YOR001W, strain rrp6, active compounds read low
Among all 5,500 compounds or so, about 2,000 (36%) were called active. About 18% were inconclusive and are not listed. Some of the results follow.
Below: a set of entries, each annotated with reported normalized growth.
Endpoint label: normalized growth

[
  {
    "Molecule": "CC(=O)O[C@@H]1C[C@@]2(C)[C@H](c3ccoc3)C[C@H]3O[C@]32[C@]2(C)C(=O)C(O)=C3C(C)(C)C(=O)C=C[C@]3(C)C12 (stereo partly specified)",
    "Endpoint label": "normalized growth",
    "Result": "0.92 (inactive)"
  },
  {
    "Molecule": "CC1(C)CCCC2(C)C3C1[C@@H](O)C2(C)C[C@H]3O (stereo partly specified)",
    "Endpoint label": "normalized growth",
    "Result": "1 (inactive)"
  },
  {
    "Molecule": "C=CC(C)(O)CC/C=C(\\C)CCC=C(C)C (stereo unspecified)",
    "Endpoint label": "normalized growth",
    "Result": "0.887 (active)"
  },
  {
    "Molecule": "Nc1ncn([C@@H]2O[C@H](CO)[C@@H](O)[C@H]2O)c(=O)n1",
    "Endpoint label": "normalized growth",
    "Result": "0.976 (inactive)"
  },
  {
    "Molecule": "C=C[C@@H](C1=CC(=O)C(OC)=C(OC)C1=O)c1ccccc1",
    "Endpoint label": "normalized growth",
    "Result": "0.976 (inactive)"
  },
  {
    "Molecule": "C[n+]1cccc(C(=O)[O-])c1",
    "Endpoint label": "normalized growth",
    "Result": "0.933 (inactive)"
  },
  {
    "Molecule": "CCCC(C)C1(CC)C(=O)NC(=O)NC1=O (stereo unspecified)",
    "Endpoint label": "normalized growth",
    "Result": "0.999 (inactive)"
  },
  {
    "Molecule": "COC(=O)C[C@H]1C(C)(C)C(=O)[C@@H]2CC3=C4CC(=O)O[C@@H](c5ccoc5)[C@]4(C)CCC3[C@@]1(C)C2=O (stereo partly specified)",
    "Endpoint label": "normalized growth",
    "Result": "0.985 (inactive)"
  },
  {
    "Molecule": "O=[N+]([O-])c1ccc(O)c([N+](=O)[O-])c1",
    "Endpoint label": "normalized growth",
    "Result": "0.841 (active)"
  },
  {
    "Molecule": "CC(C)(C)NC[C@@H](O)COc1nsnc1N1CCOCC1",
    "Endpoint label": "normalized growth",
    "Result": "1.02 (inactive)"
  },
  {
    "Molecule": "O=C(O)c1ccccc1Nc1cccc(C(F)(F)F)c1",
    "Endpoint label": "normalized growth",
    "Result": "0.872 (active)"
  },
  {
    "Molecule": "C=CC(C1=CC(=O)C(OC)=CC1=O)c1ccc(O)cc1 (stereo unspecified)",
    "Endpoint label": "normalized growth",
    "Result": "0.986 (inactive)"
  },
  {
    "Molecule": "CCOP(=S)(OCC)SCn1c(=O)oc2cc(Cl)ccc21",
    "Endpoint label": "normalized growth",
    "Result": "0.969 (inactive)"
  },
  {
    "Molecule": "COc1ccc(C(Cl)=C(c2ccc(OC)cc2)c2ccc(OC)cc2)cc1",
    "Endpoint label": "normalized growth",
    "Result": "1.04 (inactive)"
  },
  {
    "Molecule": "C=C(CC)C(=O)c1ccc(OCC(=O)O)c(Cl)c1Cl",
    "Endpoint label": "normalized growth",
    "Result": "0.948 (inactive)"
  },
  {
    "Molecule": "CC(=O)O[C@@H]1CC2C(C)(C)C=CC(=O)[C@]2(C)C2CC[C@@]3(C)[C@H](c4ccoc4)OC(=O)C4OC43[C@@]21C (stereo partly specified)",
    "Endpoint label": "normalized growth",
    "Result": "0.995 (inactive)"
  },
  {
    "Molecule": "CCN(CC)CCOc1ccc(/C(=C(\\Cl)c2ccccc2)c2ccccc2)cc1",
    "Endpoint label": "normalized growth",
    "Result": "0.337 (active)"
  },
  {
    "Molecule": "CC(C)=CCC[C@](C)(O)C1CC=C(C)CC1 (stereo partly specified)",
    "Endpoint label": "normalized growth",
    "Result": "0.975 (inactive)"
  },
  {
    "Molecule": "O=C(O)c1ccccc1Nc1ccccc1",
    "Endpoint label": "normalized growth",
    "Result": "0.951 (inactive)"
  },
  {
    "Molecule": "CO[C@H]1/C=C/O[C@@]2(C)Oc3c(C)c(O)c4c(O)c(c5c(nc6cc(C)ccn65)c4c3C2=O)NC(=O)/C(C)=C\\C=C\\[C@H](C)[C@H](O)[C@@H](C)C(O)[C@@H](C)[C@H](OC(C)=O)[C@@H]1C (stereo partly specified)",
    "Endpoint label": "normalized growth",
    "Result": "1.01 (inactive)"
  },
  {
    "Molecule": "O=C1O[C@H](C(O)CO)C(O)=C1O (stereo partly specified)",
    "Endpoint label": "normalized growth",
    "Result": "0.989 (inactive)"
  }
]

###

# Assay remarks: chemical genetic growth profiling, strain panel (AID 1159580);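 also: tested at 20 µM; growth read once vehicle control cultures reached saturation at 30 °C; 1 = growth at the plate median or of vehicle wells; lower values mean less growth of the strain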
# Condition set: S. cerevisiae deletion strains, growth OD, locus YGR252W, strain gcn5, active compounds read low
In all, about 5,500 compounds went through this assay and about 2,000 (36%) were called active. Not shown: some 18% with an inconclusive outcome. The list shows a part of the results.
The threshold is 1. Values of normalized growth beneath it are tagged 1; values meeting or exceeding it are tagged -1.

[
  {
    "Molecule": "CC(=O)O[C@@H]1CC2C(C)(C)C(=O)CC[C@]2(C)C2CC[C@]3(C)C(=CC(=O)O[C@H]3c3ccoc3)[C@@]21C (stereo partly specified)",
    "Assigned category": -1
  },
  {
    "Molecule": "C[C@H](N)[C@H](O)c1ccc(O)c(O)c1",
    "Assigned category": 1
  },
  {
    "Molecule": "N[C@@H](Cc1ccc(O)c(O)c1)C(=O)O",
    "Assigned category": -1
  },
  {
    "Molecule": "O=C1O[C@H](C(O)CO)C(O)=C1O (stereo partly specified)",
    "Assigned category": -1
  },
  {
    "Molecule": "CC(C)(C)NCC(O)c1ccccc1Cl (stereo unspecified)",
    "Assigned category": 1
  }
]

###

# Assay remarks: chemical genetic growth profiling, strain panel (AID 1159580);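 also: tested at 20 µM; growth read once vehicle control cultures reached saturation at 30 °C; 1 = growth at the plate median or of vehicle wells; lower values mean less growth of the strain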
# Condition set: S. cerevisiae deletion strains, growth OD, locus YER167W, strain BCK2, active compounds read low
The campaign covered roughly 5,500 compounds. About 2,000 (36%) were called active. Not shown: some 18% with an inconclusive outcome. The list shows a part of the results.
Listing: normalized growth of selected compounds
Endpoint label: normalized growth

[
  {
    "Compound": "CN1C(CC(=O)c2ccccc2)CCCC1CC(O)c1ccccc1 (configuration not stated)",
    "Number": 1.02
  },
  {
    "Compound": "Nc1nc2c(ncn2C2C[C@H](O)[C@@H](CO)O2)c(=O)[nH]1 (some centres not stated)",
    "Number": 1.01
  },
  {
    "Compound": "C[C@H]1[C@H]2CCC3C4CC=C5C[C@@H](N(C)C)CC[C@]5(C)C4CC[C@@]32CN1C (some centres not stated)",
    "Number": 0.999
  },
  {
    "Compound": "N[C@@H](Cc1ccc(O)c(O)c1)C(=O)O",
    "Number": 0.989
  },
  {
    "Compound": "Nc1ncnc2c1ncn2C1O[C@H](COP(=O)(O)O)[C@@H](O)[C@H]1O (some centres not stated)",
    "Number": 1.03
  },
  {
    "Compound": "C[C@H](N)[C@H](O)c1ccc(O)c(O)c1",
    "Number": 1.02
  },
  {
    "Compound": "OC[C@@H]1CCCN2CCCC[C@H]12",
    "Number": 1
  },
  {
    "Compound": "O=[N+]([O-])c1cc([As](=O)(O)O)ccc1O",
    "Number": 1.02
  },
  {
    "Compound": "O=[N+]([O-])c1ccc(O)c([N+](=O)[O-])c1",
    "Number": 0.76
  },
  {
    "Compound": "C1CCN2CC3CC(CN4CCCCC34)C2C1 (configuration not stated)",
    "Number": 1.01
  },
  {
    "Compound": "CC(=O)O[C@@H]1CC2C(C)(C)C(=O)CC[C@]2(C)C2CC[C@]3(C)C(=CC(=O)O[C@H]3c3ccoc3)[C@@]21C (some centres not stated)",
    "Number": 0.97
  },
  {
    "Compound": "CCCC1O[C@@H]2CC3C4CCC5=CC(=O)C=CC5(C)C4[C@@H](O)CC3(C)[C@]2(C(=O)CO)O1 (some centres not stated)",
    "Number": 1.01
  },
  {
    "Compound": "C1CCN2C[C@@H]3C[C@H](CN4CCCC[C@@H]34)[C@H]2C1",
    "Number": 1.03
  },
  {
    "Compound": "Nc1ncnc2c1ncn2C1C[C@H](O)[C@@H](CO)O1 (some centres not stated)",
    "Number": 0.996
  },
  {
    "Compound": "O=c1[nH]c(=O)n(C2C[C@@H](O)[C@@H](CO)O2)cc1F (some centres not stated)",
    "Number": 1
  },
  {
    "Compound": "CC(C)(C)NCC(O)c1ccccc1Cl (configuration not stated)",
    "Number": 0.957
  },
  {
    "Compound": "O=C(O[C@@H]1Cc2c(O)cc(O)cc2O[C@@H]1c1cc(O)c(O)c(O)c1-c1c([C@H]2Oc3cc(O)cc(O)c3C[C@H]2O)cc(O)c(O)c1O)c1cc(O)c(O)c(O)c1",
    "Number": 0.295
  },
  {
    "Compound": "COc1cc2c(c(OC)c1OC)-c1ccc(O)c(=O)cc1[C@@H](NC(C)=O)CC2",
    "Number": 0.798
  },
  {
    "Compound": "CC(Cc1ccc(O)c(O)c1)C(C)Cc1ccc(O)c(O)c1 (configuration not stated)",
    "Number": 0.957
  },
  {
    "Compound": "C=CCC1(C(C)CCC)C(=O)N=C(S)NC1=O (configuration not stated)",
    "Number": 0.961
  },
  {
    "Compound": "COc1cc2c(c(OC)c1OC)-c1ccc(OC)c(=O)cc1[C@@H](NC(C)=O)CC2",
    "Number": 1.02
  },
  {
    "Compound": "O=C1O[C@H](C(O)CO)C(O)=C1O (some centres not stated)",
    "Number": 1
  }
]
